Listing of recorded Ratio IC50 by entry.
Test system: SW-620
Test: Selectivity ratio of IC50 for human SW620 cells under aerobic condition to IC50 for human SW620 cells under hypoxic condition

- O=c1[nH]c(=O)n([C@H]2C[C@H](O)[C@@H](CO)O2)cc1F: <1
- Cc1cc(C)c(/C=C(\C(=O)Nc2ccc(N(CCCl)CCCl)cc2)c2ccccc2[N+](=O)[O-])[nH]1: <1
- Nc1n[n+]([O-])c2ccccc2[n+]1[O-]: 76
- N[C@@H](Cc1ccc(N(CCCl)CCCl)cc1)C(=O)O: 1.5
- Cn1c(COP(=O)(NCCBr)NCCBr)cnc1[N+](=O)[O-] [EVOFOSFAMIDE]: 396

Consider now this further molecule.
Quick check: Ratio IC50 of Cc1cc(C)c(/C=C(\C(=O)OC[C@H]2O[C@@H](n3cc(F)c(=O)[nH]c3=O)C[C@@H]2O)c2ccccc2[N+](=O)[O-])[nH]1 ? 1.3

====

Assay: Ratio of test compound IC50 to floxuridine IC50 for human SW620 cells incubated for 4 hrs under aerobic condition followed by compound washout and measured after 5 days by SRB assay
Type: ADME, cell-based, SW-620
Details: read-out: Ratio IC50
measurement_name: selectivity ratio at 4 h
// return just the number, without any unit appended

Quick check: selectivity ratio at 4 h of Cc1cc(C)c(/C=C(\C(=O)OC[C@H]2O[C@@H](n3cc(F)c(=O)[nH]c3=O)C[C@@H]2O)c2ccccc2[N+](=O)[O-])[nH]1 ? 19.4

====

Assay: Ratio of test compound IC50 to floxuridine IC50 for human MDA-MB-468 cells incubated for 4 hrs under aerobic condition followed by compound washout and measured after 5 days by SRB assay
Format: ADME, cell-based
Details: read-out: Ratio IC50
measurement_name: selectivity ratio at 4 h

Quick check: selectivity ratio at 4 h of Cc1cc(C)c(/C=C(\C(=O)OC[C@H]2O[C@@H](n3cc(F)c(=O)[nH]c3=O)C[C@@H]2O)c2ccccc2[N+](=O)[O-])[nH]1 ? 3.1

====

Listing of recorded IC50 by entry.
Tested on: MDA-MB-468
Assay: Cytotoxicity against human MDA-MB-468 cells incubated for 4 hrs under aerobic condition followed by compound washout and measured after 5 days by SRB assay
Format: cell-based
Quick note: give the figure in µM, leave out the unit.

Known results for compounds:
- Nc1n[n+]([O-])c2ccccc2[n+]1[O-]: 105
- N[C@@H](Cc1ccc(N(CCCl)CCCl)cc1)C(=O)O: 1
- Cn1c(COP(=O)(NCCBr)NCCBr)cnc1[N+](=O)[O-] [EVOFOSFAMIDE]: 4.4

Quick check: IC50 of Cc1cc(C)c(/C=C(\C(=O)OC[C@H]2O[C@@H](n3cc(F)c(=O)[nH]c3=O)C[C@@H]2O)c2ccccc2[N+](=O)[O-])[nH]1 ? 83.9

Quick check: IC50 of O=c1[nH]c(=O)n([C@H]2C[C@H](O)[C@@H](CO)O2)cc1F ? 27.4

Quick check: IC50 of Cc1cc(C)c(/C=C(\C(=O)Nc2ccc(N(CCCl)CCCl)cc2)c2ccccc2[N+](=O)[O-])[nH]1 ? 8.31

====

Experiment: Ratio of test compound IC50 to melphalan IC50 for human SW620 cells incubated for 4 hrs under aerobic condition followed by compound washout and measured after 5 days by SRB assay
Assay type: ADME, cell-based, SW-620
Conditions: read-out: Ratio IC50
measurement_name: selectivity ratio at 4 h
// return just the number, without any unit appended

Quick check: selectivity ratio at 4 h of Cc1cc(C)c(/C=C(\C(=O)Nc2ccc(N(CCCl)CCCl)cc2)c2ccccc2[N+](=O)[O-])[nH]1 ? 6.3
